Assay: recombinant UMI read abundance after kanamycin selection (control-corrected) (log10(CPM+1)); higher = more efficient recombination; extreme values may be limits of the assay; sequences stand for … in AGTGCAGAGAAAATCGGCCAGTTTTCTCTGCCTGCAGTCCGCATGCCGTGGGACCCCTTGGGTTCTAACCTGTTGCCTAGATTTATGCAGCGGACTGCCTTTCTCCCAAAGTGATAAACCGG…AGGTTGGTTTCACT; site = the 11-nt donor
What recombinant UMI read abundance (log10) was measured for each of the following?
Could you respond with only the numeric value?

### Prompt Consider the sequence shown here: AAGCTGTCATGGACCGGTTTTCCCGGTAATCCGTATTTGAT (site AAGCTGTCTAT) What is its recorded recombinant UMI read abundance (log10)?
### Response 0.353

### Prompt What does the record list as recombinant UMI read abundance (log10) for GCACGTTCATGGACCGGTTTTCCCGGTAATCCGTATTTGGC (site GCACGTTCTGC) ?
### Response 2.74

### Prompt Could you share which recombinant UMI read abundance (log10) value was measured for GATTATCCATGGACCGGTTTTCCCGGTAATCCGTATTTGCT (site GATTAACCTAG) ?
### Response 0

### Prompt Consider the sequence shown here: CCTATATCATGGACCGGTTTTCCCGGTAATCCGTATTTGTC (site CCGATATCTGA) What is its recorded recombinant UMI read abundance (log10)?
### Response 0

### Prompt Form field: reported recombinant UMI read abundance (log10) of CCCCATACATGGACCGGTTTTCCCGGTAATCCGTATTTGTA (site CCCCATACTTA)
### Response 0.512

### Prompt // lookup recombinant UMI read abundance (log10) for TAAAGTCCATGGACCGGTTTTCCCGGTAATCCGTATTTGAA (site TAAAGTCCTTG)
### Response 0

### Prompt // lookup recombinant UMI read abundance (log10) for TAACCTTCATGGACCGGTTTTCCCGGTAATCCGTATTTGGT (site TACCCTTCTAC)
### Response 0.00501

### Prompt Query: recombinant UMI read abundance (log10); subject: CGGGATTCATGGACCGGTTTTCCCGGTAATCCGTATTTGTT (site CGGAATCCTAA)
### Response 0

### Prompt # lookup: recombinant UMI read abundance (log10) of ATAGCATCATGGACCGGTTTTCCCGGTAATCCGTATTTGCA (site ACAGTATCTTG)
### Response 1.65

----------
Assay: recombinant barcode read abundance after kanamycin selection (control-corrected) (log10(CPM+1)); higher = more efficient recombination; sequences stand for … in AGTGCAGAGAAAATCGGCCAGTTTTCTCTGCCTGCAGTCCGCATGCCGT…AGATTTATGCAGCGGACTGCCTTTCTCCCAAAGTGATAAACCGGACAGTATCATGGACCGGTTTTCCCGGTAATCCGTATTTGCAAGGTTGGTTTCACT; site = the 11-nt target
I'd appreciate it if you could supply recombinant barcode read abundance (log10) values for the items below.

### Prompt What does the data say about its recombinant barcode read abundance (log10)? Entry: AGCCTGGCTTGGGTTCTAACCTGTTGCCT (site AGCCTGACTAG)
### Response 0.302

### Prompt May I ask what recombinant barcode read abundance (log10) has been recorded for AGGGGAGCTTGGGTTCTAACCTGTTGCGG (site AGGGGAGCTCC) ?
### Response 2.35

### Prompt Look at this sequence and give its reported recombinant barcode read abundance (log10). CTGTGCACTTGGGTTCTAACCTGTTGCCG (site ATGTGCACTCT)
### Response 0.053

### Prompt Fill in: recombinant barcode read abundance (log10) of GTCGAACCTTGGGTTCTAACCTGTTGCTA (site GTCGAACCTTA) is ___
### Response 1.79

### Prompt Need recombinant barcode read abundance (log10), item GTACGTCCTTGGGTTCTAACCTGTTGCCT (site GTACGTCCTAC)
### Response 0.352

### Prompt Endpoint output: recombinant barcode read abundance (log10) of GCTTCGTCTTGGGTTCTAACCTGTTGCCT (site GCATCGTCTAG) . Value?
### Response 0.427

### Prompt // recombinant barcode read abundance (log10) lookup, key: CCACACTCTTGGGTTCTAACCTGTTGCCT (site CTACACTCTAG)
### Response 0.171

### Prompt Quick one: recombinant barcode read abundance (log10) of CCTGGGACTTGGGTTCTAACCTGTTGCGA (site CCTGGGACTTC) ?
### Response 2.58

### Prompt May I ask what recombinant barcode read abundance (log10) has been recorded for ACAGTGTCTTGGGTTCTAACCTGTTGCGG (site ACATTGTCTCC) ?
### Response 0.324

### Prompt Quick one: recombinant barcode read abundance (log10) of GAAAGTCCTTGGGTTCTAACCTGTTGCCT (site GAAAGTCCTAG) ?
### Response 0.917

### Prompt Would you mind telling me what recombinant barcode read abundance (log10) value was observed for GGGCATCCTTGGGTTCTAACCTGTTGCAT (site TCATTAGCTCG) ?
### Response 0.246

### Prompt GET /values?readout=recombinant barcode read abundance (log10)&item= CGTGGTCCTTGGGTTCTAACCTGTTGCTT (site CGTGGTCCTAC)
### Response 0.409

### Prompt If you can, please state the reported recombinant barcode read abundance (log10) value of GAGGTATCTTGGGTTCTAACCTGTTGCCA (site GAGGTATCTAC) .
### Response 0.038

### Prompt Entry under review: TCCAGCTCTTGGGTTCTAACCTGTTGCCT (site ACCAGATCTAG) . Reported recombinant barcode read abundance (log10)?
### Response 0.0273

### Prompt For GCCGACACTTGGGTTCTAACCTGTTGCCT (site GCCGAAACTAG) , what is its reported recombinant barcode read abundance (log10)?
### Response 0.0569

### Prompt Form field: reported recombinant barcode read abundance (log10) of CGATGGACTTGGGTTCTAACCTGTTGCTG (site AAGCTTGCTAG)
### Response 0.0171

### Prompt Any idea what recombinant barcode read abundance (log10) was measured for TATTACCCTTGGGTTCTAACCTGTTGCCT (site TATTAACCTAG) ?
### Response 0.035

### Prompt Give the measured recombinant barcode read abundance (log10) of GTAGAGTCTTGGGTTCTAACCTGTTGCTT (site GTAGAGTCTAA) .
### Response 2.41

### Prompt What does the record list as recombinant barcode read abundance (log10) for TTATTGTCTTGGGTTCTAACCTGTTGCCT (site TTATTGTCTAG) ?
### Response 1.37

### Prompt Look up recombinant barcode read abundance (log10): CTAACCTCTTGGGTTCTAACCTGTTGCTT (site CTAACCTCTTA)
### Response 0

### Prompt Name the reported recombinant barcode read abundance (log10) value associated with the sequence GCTTAAACTTGGGTTCTAACCTGTTGCCT (site ATGGCCTCTTA)
### Response 0.0724

### Prompt # query: recombinant barcode read abundance (log10) of entry CCGGTATCTTGGGTTCTAACCTGTTGCCT (site CCGTTATCTAG)
### Response 0.0727

### Prompt I would be grateful if you could share the reported recombinant barcode read abundance (log10) for GATGCACCTTGGGTTCTAACCTGTTGCGG (site TGATTGACTAA) .
### Response 0.0617

### Prompt Which value of recombinant barcode read abundance (log10) has been reported for AGTTCGACTTGGGTTCTAACCTGTTGCCT (site AATTCGACTAG) in the records?
### Response 0.0143

### Prompt Which recombinant barcode read abundance (log10) value is on record for GTACGTCCTTGGGTTCTAACCTGTTGCAT (site GTACGTCCTAT) ?
### Response 1

### Prompt What value of recombinant barcode read abundance (log10) has been recorded for this entry: GCGATCCCTTGGGTTCTAACCTGTTGCTT (site GCGATCCCTAA)
### Response 0.798

### Prompt Requested read-out: recombinant barcode read abundance (log10). Entry: TTACGCGCTTGGGTTCTAACCTGTTGCGG (site TTACGTGCTCC)
### Response 0.0492

### Prompt Requested read-out: recombinant barcode read abundance (log10). Entry: GTTCCATCTTGGGTTCTAACCTGTTGCCT (site GGTCCATCTAG)
### Response 0.216

### Prompt Look at this sequence and give its reported recombinant barcode read abundance (log10). ATGAGAGCTTGGGTTCTAACCTGTTGCCT (site ATGAGAGCTAG)
### Response 1.05

### Prompt Fill in: recombinant barcode read abundance (log10) of TCCGCTTCTTGGGTTCTAACCTGTTGCCT (site TCCGCTTCTAG) is ___
### Response 0.487

### Prompt Entry under review: TAGTTGCCTTGGGTTCTAACCTGTTGCCT (site TAATTGCCTAG) . Reported recombinant barcode read abundance (log10)?
### Response 0.296

### Prompt Could you tell me which recombinant barcode read abundance (log10) is on file for CCAGGTGCTTGGGTTCTAACCTGTTGCGG (site GGCTTGACTAG) ?
### Response 0.0921

### Prompt Need recombinant barcode read abundance (log10), item CATTAGACTTGGGTTCTAACCTGTTGCCT (site TATTAGACTAG)
### Response 0.08

### Prompt Return reported recombinant barcode read abundance (log10); argument: CCTCAGGCTTGGGTTCTAACCTGTTGCCG (site CCTCAGGCTCG)
### Response 0.229

### Prompt What does the record list as recombinant barcode read abundance (log10) for AGCAGGACTTGGGTTCTAACCTGTTGCCG (site AGCAGGACTCG) ?
### Response 1.17

### Prompt Please give the measured recombinant barcode read abundance (log10) for this sequence: AGCAATTCTTGGGTTCTAACCTGTTGCCT (site AGAAATTCTAG)
### Response 0.144

### Prompt Which recombinant barcode read abundance (log10) is reported for this sequence? CGCAATGCTTGGGTTCTAACCTGTTGCCT (site CGTAATGCTAG)
### Response 0.322

### Prompt I am curious: what recombinant barcode read abundance (log10) value has been reported for CCAGGAGCTTGGGTTCTAACCTGTTGCCT (site CCAGGAGCTAG) ?
### Response 0.545

### Prompt Please report the recorded recombinant barcode read abundance (log10) for GAGTTCACTTGGGTTCTAACCTGTTGCAG (site AGTCGTTCTAG) .
### Response 0.141

### Prompt Name the reported recombinant barcode read abundance (log10) value associated with the sequence TTCAAGCCTTGGGTTCTAACCTGTTGCCT (site TTCAAGTCTAG)
### Response 0.0767

### Prompt Quick one: recombinant barcode read abundance (log10) for AAGGCCTCTTGGGTTCTAACCTGTTGCCA (site AAGGCCTCTAT) ?
### Response 0.0333

### Prompt // query recombinant barcode read abundance (log10) value for entry TAAAAGACTTGGGTTCTAACCTGTTGCCT (site TAAAAGTCTAG)
### Response 0.178
